Test system: RARa:RXR (NR concentration 270 nM, RXRa partner concentration 90 nM)
Experiment: PBM binding z-score (relative to random genomic background probes); higher = stronger binding; sequences stand for … in GC…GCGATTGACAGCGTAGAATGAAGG
MEASURE: PBM binding z-score
Numbers only.

For orientation, consider the following solved cases.
| SEQUENCE_INPUT | SYSTEM_UNDER_TEST | OBSERVED |
| --- | --- | --- |
| TTGCCTAGGTCATTGGGCCAGTATAGTACGCATC | RARa:RXR (NR concentration 270 nM, RXRa partner concentration 90 nM) | 2.13 |
| CGTCCAAAGTCAAAGGTCAGTGAAGAGATGACGG | RARa:RXR (NR concentration 270 nM, RXRa partner concentration 90 nM) | 5.61 |

Give measured PBM binding z-score for every item shown.
1. AGTCAAAGGTCATCTAGGTAACGTAAGATATGCT
2. CTCGAAAGGTCATGCTCAGGTGAGTATACCAAAC
3. TCTCGGAGGACACAAAGGTCAGAGCTTTCCAGAG
4. CTATGTAGGTTACGGGGGTCATTCAGTTTGAAAG
5. ACTTACGGGTCTACGAGGTTATAGCACGCGTATA
6. CGTCCAAGGTCATTGGAGGTCAGTGAAGACAGAT
7. TCTCGGAGGAAACGAAAGGTCAGAGCTCGACATC
8. GCTGCTAGGTCAACTGATGGTCATCTAAAGCTCG

*A*
1: 6.03; 2: 6.85; 3: 4.59; 4: 6.09; 5: 1.28; 6: 6.25; 7: 4.48; 8: 3.74

Tested on RARa:RXR (NR concentration 270 nM, RXRa partner concentration 90 nM), the item GGAACGAGGGCATTCGAGTTCATAGCATGGCGAT showed PBM binding z-score equal to 2.84

The measurements presented in this section are drawn from the supplement of paper PMC6555819.
